Test: Stability during exposure to human serum (LC-MS)
Conditions: 37° C., up to 360 min, peptide mixtures
Peptide text beside a SMILES is read from it.
measurement.name: Stability, Serum

CC(C)C[C@H](NC(=O)[C@@H]1CCCN1)C(=O)N1CCC[C@H]1C(=O)O [PLP] (H-Pro-Leu-Pro-OH; N-terminus and C-terminus assumed): −
N[C@@H](Cc1ccccc1)C(=O)N[C@@H](Cc1ccc(O)cc1)C(=O)O [FY] (H-Phe-Tyr-OH; N-terminus and C-terminus assumed): +
CC(C)C[C@H](NC(=O)[C@@H](NC(=O)[C@@H](N)CCCCN)C(C)C)C(=O)N1CCC[C@H]1C(=O)N[C@H](C(=O)N1CCC[C@H]1C(=O)O)C(C)C [KVLPVP] (H-KVLPVP-OH; N-terminus and C-terminus assumed): −
CC(C)[C@H](N)C(=O)N[C@@H](C)C(=O)N1CCC[C@H]1C(=O)O [VAP] (H-Val-Ala-Pro-OH; N-terminus and C-terminus assumed): −
CSCC[C@H](N)C(=O)N1CCC[C@H]1C(=O)N1CCC[C@H]1C(=O)O [MPP] (H-Met-Pro-Pro-OH; N-terminus and C-terminus assumed): +/−

Next molecule, Stability, Serum to be filled in.
Any idea what its Stability, Serum is? The molecule is CC[C@H](C)[C@H](NC(=O)[C@@H]1CCCN1)C(=O)N1CCC[C@H]1C(=O)O [PIP] (H-Pro-Ile-Pro-OH; N-terminus and C-terminus assumed)
−
